Reference source for all entries: the supplement of paper PMC12632987

The following binders are listed with their measured median log2 fold change values.
Target: T1, USP38, Q8NB14
T1 chain: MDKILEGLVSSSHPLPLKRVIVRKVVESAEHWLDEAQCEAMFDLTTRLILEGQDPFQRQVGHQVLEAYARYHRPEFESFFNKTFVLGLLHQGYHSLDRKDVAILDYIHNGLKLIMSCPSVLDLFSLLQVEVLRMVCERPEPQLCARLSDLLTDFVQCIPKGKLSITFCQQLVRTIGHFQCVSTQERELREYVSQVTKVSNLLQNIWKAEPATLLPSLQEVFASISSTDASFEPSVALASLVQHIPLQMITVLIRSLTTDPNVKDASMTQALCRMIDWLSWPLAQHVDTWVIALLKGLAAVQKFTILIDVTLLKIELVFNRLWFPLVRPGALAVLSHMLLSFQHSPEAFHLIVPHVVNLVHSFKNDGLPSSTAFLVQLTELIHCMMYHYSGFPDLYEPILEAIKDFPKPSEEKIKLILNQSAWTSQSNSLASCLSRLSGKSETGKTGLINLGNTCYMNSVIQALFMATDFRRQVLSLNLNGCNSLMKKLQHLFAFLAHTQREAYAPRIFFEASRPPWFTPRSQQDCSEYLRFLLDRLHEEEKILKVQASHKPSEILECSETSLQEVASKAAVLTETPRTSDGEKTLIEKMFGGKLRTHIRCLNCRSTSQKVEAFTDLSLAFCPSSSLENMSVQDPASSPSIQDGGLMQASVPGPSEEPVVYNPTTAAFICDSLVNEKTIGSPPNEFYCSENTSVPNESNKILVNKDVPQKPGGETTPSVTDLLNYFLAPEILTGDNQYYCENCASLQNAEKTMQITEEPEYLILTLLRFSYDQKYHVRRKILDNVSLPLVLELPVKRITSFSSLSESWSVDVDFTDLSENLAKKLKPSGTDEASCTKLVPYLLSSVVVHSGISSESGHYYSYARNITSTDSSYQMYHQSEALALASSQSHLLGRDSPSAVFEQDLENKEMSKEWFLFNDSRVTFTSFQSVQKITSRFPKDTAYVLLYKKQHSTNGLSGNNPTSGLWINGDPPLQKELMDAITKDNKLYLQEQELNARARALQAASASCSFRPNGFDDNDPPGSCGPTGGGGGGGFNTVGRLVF
Test: median log2 fold change of GCK-ALFA target abundance (FLAG IP / Myc IP barcode read proportion) (log2 ratio); each designed protein is fused to an ALFA-tag nanobody in HEK293 cells to bring the named protein to FLAG-tagged glucokinase (GCK); Myc marks an untargeted standard; higher = target protein stabilised (more abundant)
Settings: target protein: 3xFLAG-MCP-GCK-ALFA reporter; HEK293 landing pad (RPLP)

usp_38_diff_out_18_28_419 (protein) MLEERQKKIEKLQKEADELIDKYTEAAEKGFLKYHEDPSAEEVLEAIKELSDHVGAAAAAVNEMKENIENEEKFEEELKKFKEHKKKALEALEKLKKLLA ... 0.0382
usp_38_diff_out_18_30_436 (protein) SAEDEETERYIREALRKATAESLRELAERLERRLPDSPEAREIVALVREAARLLEEGTPEALAQAAALLRRALALLEADPRATDRELTALRGLLVVVEEL ... 0.0576

Identify median log2 fold change associated with the binder usp_38_diff_out_3_65_529 (protein) KVEEEIKKAKKYLEEARKIIEELKEKVKTDPTITEEEVNEMLDEAADLIVKAGEALRKARKLNPDEEQKKEIEKLEKELDELIDEYTEAGREAFLAVGER
0.0941

Identify median log2 fold change associated with the binder usp_38_diff_out_18_31_442 (protein) SVVEEAKRVAKEALEAIEKLKKTIDELKKAIGKDPKKAEELLKKARELLKKFSELYLRLRDLRRQAPEQIRPLLEELEKKADEAIDKYEEAETAYFLAKA
-0.788
